- Tested on: 786-0 renal
- experimentDescription: NCI tumour cell line growth inhibition, 48 h; in the data active means GI50 below about 0.43 µM; inactive means the rest
Outcomes: 1 for active, -1 for inactive

>>> print(df.to_string())
                                    compound  label
 0  Cc1cc(O)cc(C)c1/C=C/c1cncc(C(=O)OC(C)(C)C)c1     -1
 1  CNC(=O)c1cc2c(Oc3ccc(NC(=S)NC(=O)Cc4ccccc4)cc3F)ccnc2cc1OC     -1
 2  CC12CCC(O)CC1=CCC1C2CCC2(C)C(c3cccnc3)=CCC12 (stereo not given)     -1
 3  Clc1ccc(N2CCC(N3CCCC3)CC2)cc1-c1nc2ccccc2[nH]1     -1
 4  CCCCCSC1C2C(=O)C(Br)=CC13CCNc1c(O)c4c5c(c13)=[N+]2CCC=5C=N4 (stereo not given)     -1
 5               CN(C)CCNc1nc2ccccc2c2occc12     -1
 6  O=C(COc1ccc(-c2nc3cc(Cl)c(Cl)cc3[nH]2)cc1)N=Nc1c(O)[nH]c2ccccc12     -1
 7  CC/C=C\C[C@H](O)C/C=C1/C(=O)C=C[C@@H]1C/C=C\CCCC(=O)NC     -1
 8  COc1ccc(-c2nnc(Nc3nc(O)c(C4=c5cc(F)ccc5=NC4=O)s3)o2)cc1     -1
 9  FC(F)(F)c1[nH]ncc1-c1nc2ccc3[nH]ncc3c2c2c1CCCC2     -1
10  CNCCCn1c2c(c3ccc(F)cc3c1=O)C(=O)c1cc(OC)cnc1-2      1
11  COc1ccc(C#CC2=C(c3cc(OC)c(OC)c(OC)c3)C(=O)OC2)cc1     -1
12  N#C/C(=C\c1cccc2cnccc12)N1N=NC2C=CC=CC21 (stereo not given)     -1
13                O=Nc1c(O)c2ccccc2c2ccccc12     -1
14  COc1ccc2nccc(/C=C/c3ccnc4ccc(OC)cc34)c2c1     -1

* * *

- Tested on: SK-MEL-2 melanoma
- experimentDescription: NCI tumour cell line growth inhibition, 48 h
propertyMeasured: TGI

                                    compound  assayvalue
 0  CCc1c(C)c2ccc(OCC(=O)N=Nc3c(O)[nH]c4ccccc34)c(C)c2oc1=O   > 33.3 µM
 1  NC(C(=O)OC(=O)c1ccccc1)C(=O)OC(=O)c1ccccc1    > 100 µM
 2            CN=C(NC)N(C)c1nc(=[N+](C)C)ss1    > 100 µM
 3  CCCCCCCCCCCCCCCCOc1ccc(/C=C/C2=[N+](CCCl)CCO2)cc1    > 100 µM
 4  NC(=S)N/N=C1\CCCCC1C(O)(C(F)(F)Cl)C(F)(F)Cl (configuration not stated)     > 10 µM
 5  Brc1ccc(-c2cc(-c3ccc4c(c3)OCO4)c(-c3cccs3)n2Cc2ccccc2)cc1    > 100 µM
 6  CCOC(=O)c1nc2cc(C(F)(F)F)ccc2[n+]([O-])c1C    > 100 µM
 7  COc1ccc(-c2cc(-c3ccccc3)nc3c2CC(=O)Nc2ccccc2-3)cc1OC    > 100 µM
 8       O=C1Nc2ccccc2/C1=C\c1c(Cl)nc2n1CCS2     32.5 µM
 9  Cc1cc(C)c2c(=O)cc(-c3ccc4ccccc4c3)[nH]c2n1    > 100 µM
10  C=CCn1c(-c2ccc(Cl)cc2Cl)csc1=Nc1c(C)n(C)n(-c2ccccc2)c1=O     29.2 µM
11     CCN(CC)c1ccc(/C=C/C=C(/C#N)C(N)=S)cc1    > 100 µM
12  C/C=C1\CCC2c3[nH]c4ccccc4c3CCN2C1 (configuration not stated)    > 100 µM
13             COCn1c(C)c(C)c2c(=O)oc(C)nc21    > 100 µM
14  COc1cc2c(cc1O)C(c1cc(O)c(O)c(OC)c1)C(O)(C(=O)O)C(CO)C2O (configuration not stated)    > 100 µM
15  CC(C)(C)OC(=O)NCCCCCCCCCCn1c2c(c3ccccc3c1=O)C(=O)c1ccccc1-2     49.7 µM
16  CN(C)c1ccc(C(=C2C=CC(=[N+](C)C)C=C2)c2ccccc2Cl)cc1    0.899 µM
17  CN(C)/C=C/c1c2c(nc3ccccc13)C(=O)c1ccccc1C2=O     6.27 µM
18  Clc1ccc(C2=NOC3C4CCC(C4)C23)cc1 (configuration not stated)    > 100 µM
19   Cc1c(-c2ccc(O)c(O)c2)oc(=O)c2c(O)cccc12       28 µM
20  O=S(=O)(NCCO)c1cc[c]([Sb](=[O])([OH])[OH])cc1    > 100 µM
21  Cc1cc2c(C(C)C)c(O)c(O)c(C=Nc3ccccc3)c2c(O)c1-c1c(C)cc2c(C(C)C)c(O)c(O)c(C=Nc3ccccc3)c2c1O    > 100 µM

* * *

- System: HCC-2998 colon
- experimentDescription: NCI tumour cell line growth inhibition, 48 h
TGI values by entry
propertyMeasured: TGI (µM)

compound	propertyMeasured	boundOperator	assayValue
COc1cc2cc(C(=O)N3CC(CCl)c4c3cc(O)c3ccccc43)[nH]c2c(OC)c1OC (centres undefined)	TGI	<	0.005
CC1CC(C(=O)OC2OC(COC3OC(CO)C(OC4OC(C)C(O)C(O)C4O)C(O)C3O)C(O)C(O)C2O)C2CCC3(C)C(=CCC4(C)C3CCC3C(C)(CO)C(O)C(O)CC34C)C2C1C (centres undefined)	TGI	=	40.8
O=C(c1ccccc1)c1nn(-c2ccccc2)c2nc3nc(-c4ccccc4)cc(=O)n3nc12	TGI	=	60.2
COCn1c(C)c(C)c2c(=O)oc(C)nc21	TGI	>	100

* * *

- Test system: LOX IMVI melanoma
- experimentDescription: NCI tumour cell line growth inhibition, 48 h

compound	boundOperator	TGI, µM
Nc1c2c(nc3ccccc13)CCCc1ccccc1-2	=	22.1
Oc1c(CNCCNCc2cc(Cl)cc(Cc3ccccc3)c2O)cc(Cl)cc1Cc1ccccc1	=	1.66
Cc1cc(NS(=O)(=O)c2ccc(Nc3c4ccccc4nc4c(C(=O)Nc5ccc(S(=O)(=O)N=C(N)N)cc5)ccc(Cl)c34)cc2)no1	=	36.8
Cc1c(N=NN(C)C)cc[n+]([O-])c1C	>	100
CC(=O)C1=C(C)N(c2ccccc2)C2(O)C=CC(=O)C3=C(O)c4ccccc4C(=O)C312 (configuration not stated)	=	83
COc1cc2c(cc1OC)[C@@H]([C@H](O)c1ccccc1)NCC2	>	100
COC(=O)[C@@H](OC)[C@@H]1Cc2cc3cc(OC4CC(OC5CC(O)C(O)C(C)O5)C(O)C(C)O4)c(C)c(O)c3c(O)c2C(=O)[C@H]1OC1CC(OC2CC(OC3CC(C)(O)C(O)C(C)O3)C(O)C(C)O2)C(O)C(C)O1 (some centres not stated)	>	5.38

* * *

- System: OVCAR-8 ovarian
- experimentDescription: NCI tumour cell line growth inhibition, 48 h; in the data active means GI50 below about 0.43 µM; inactive means the rest
Possible outcomes: active, inactive

In [3]: df
Out[3]:
                                    compound     label
 0  C[C@@](O)(/C=C/[C@H]1CC=CC(=O)O1)[C@@H](C[C@@H](O)\C=C/C=C\C=C\CO)OP(=O)(O)O  inactive
 1         Cn1c2ccccc2c2nnc(NNCc3ccccn3)nc21  inactive
 2  COc1ccc2[nH]c(O)c(/C=c3/ccc4c(c3)N=C(c3ccc(F)cc3)N=4)c2c1  inactive
 3  COc1ccc2nccc(/C=C/c3ccnc4ccc(OC)cc34)c2c1  inactive
 4  CCOC(=O)c1nc2cc(C(F)(F)F)ccc2[n+]([O-])c1C  inactive
 5  COc1ccc(/C(=N/O)c2cc(OC)c(OC)c(OC)c2)c(OC)c1N  inactive
 6  CC(C)(C)OC(=O)NCCCCCCCCCCn1c2c(c3ccccc3c1=O)C(=O)c1ccccc1-2  inactive
 7  CC/C=C\C[C@H](O)C/C=C1/C(=O)C=C[C@@H]1C/C=C\CCCC(=O)NC  inactive
 8  CN(C)c1ccc(/C=N/NC(=O)c2cccc3ccccc23)c(Cl)c1  inactive
 9  CC(OC(=O)N(N(CCCl)S(C)(=O)=O)S(C)(=O)=O)c1ccc([N+](=O)[O-])cc1 (stereo unspecified)  inactive
10  CSc1nc(N)c2c(n1)NC(c1ccccc1)C1CCc3ccccc3C1=N2 (stereo unspecified)  inactive
11  CN(C)c1ccc(C(=C2C=CC(=[N+](C)C)C=C2)c2ccccc2Cl)cc1    active
12  O=C(COc1ccc(-c2nc3cc(Cl)c(Cl)cc3[nH]2)cc1)N=Nc1c(O)[nH]c2ccccc12  inactive
13  COc1ccc(Oc2cc(NCCC(F)(F)F)c3ncc(-c4ccc(C(=O)NC5CC5)c(C)c4)n3n2)c(F)c1F    active
14                  Nc1cc2nc3ccccc3oc-2cc1=O  inactive
15  CC12CCC(O)CC1=CCC1C2CCC2(C)C(c3cccnc3)=CCC12 (stereo unspecified)  inactive
